# Tested on: MDA-MB-231 breast
# PROTOCOL_NOTES: NCI tumour cell line growth inhibition, 48 h
PARAMETER_MEASURED: TGI

Request: So what TGI did `NCC(=O)Nc1ccc(Cl)cc1C(=O)c1ccc[nH]1` get with MDA-MB-231 breast?
Result: > 100 µM

Request: Test system MDA-MB-231 breast; read-out TGI; what value for `O=S(=O)(F)Cc1ccccc1` ?
Result: > 100 µM

Request: Item: CC1OC(NCCNCCNC2OC(C)C(O)C(O)C2O)C(O)C(O)C1O (stereo not drawn) Test system: MDA-MB-231 breast Read-out: TGI Value: ?
Result: > 100 µM
